procedure-text: Solubility screening in trehalose matrices pH 2.65 to 7.03;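 note: test items are peptides, each checked for solubility in every trehalose matrix, the matrices made up in distilled deionised water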
Type: physicochemical
assay-setup: 10 mM potassium dihydrogen phosphate and 260 mM trehalose dihydrate, pH 6.03
Ends that are not written are not given here.
Label key: 1 means Solubility [mg per ml 'as is'] under 10 mg per ml ‘as is’; 0 means Solubility [mg per ml 'as is'] of 10 mg per ml ‘as is’ or more.

These solved cases illustrate the format of a correct answer.
AKYMVIQGEPGRVIRGK [Bir12B]	0
KEMGETLLRAVESYLLAHS [Bir09B]	1
PAARMFKAFILEGDKLVPK [Bir02J]	0
SNEIKIVATPEGGSILK [Bir07C]	1
AERERIFKRFDANGEGK [Bir16A]	0

Given ETLLRAVESYLLAHSDAY [Bir09] , is recorded Solubility [mg per ml 'as is'] strictly lower than 10 mg per ml ‘as is’?
1

Given FNYETETTSVIPAARK [BIR1I] , is recorded Solubility [mg per ml 'as is'] strictly lower than 10 mg per ml ‘as is’?
0

meta.source: patent US9017689B2
